Reported pKd values are given for each entry in this list.
Target: T1, Amyloid Beta (Aβ) 1-42 (human)
T1 construct: The same peptide was used in several aggregation states: fibrils, a heterogeneous aggregate mixture, and soluble oligomers or aggregates; also called Aβ42; Aβ 42
T1 sequence (peptide, as listed by the source): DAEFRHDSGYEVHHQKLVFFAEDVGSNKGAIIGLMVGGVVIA
Assay: SPR (BIAcore T200), Aβ1-42 fibrils immobilized on CM5, Fab as analyte, global 1:1 fit; apparent KD
In simple prose, pKd is minus the logarithm base ten of a concentration in moles per litre.

response.value for h2726 Fab (Fab, V domains shown) VH: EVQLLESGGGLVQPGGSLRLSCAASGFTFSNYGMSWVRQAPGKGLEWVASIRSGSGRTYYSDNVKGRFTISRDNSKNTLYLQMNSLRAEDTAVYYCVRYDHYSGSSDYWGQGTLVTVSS VL: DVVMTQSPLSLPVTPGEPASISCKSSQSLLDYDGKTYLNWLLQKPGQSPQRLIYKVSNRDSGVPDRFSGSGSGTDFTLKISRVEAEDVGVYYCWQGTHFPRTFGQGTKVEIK (field: pKd) = 8.70

response.value for h2931 Fab (Fab, V domains shown) VH: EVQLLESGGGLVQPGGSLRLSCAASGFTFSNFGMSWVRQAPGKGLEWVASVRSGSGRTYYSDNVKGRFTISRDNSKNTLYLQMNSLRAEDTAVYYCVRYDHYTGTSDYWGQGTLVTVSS VL: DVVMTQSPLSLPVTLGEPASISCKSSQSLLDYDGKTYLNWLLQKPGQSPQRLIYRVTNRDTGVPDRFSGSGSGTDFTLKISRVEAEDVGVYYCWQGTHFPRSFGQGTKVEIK (field: pKd) = 8.79

response.value for h2731 Fab (Fab, V domains shown) VH: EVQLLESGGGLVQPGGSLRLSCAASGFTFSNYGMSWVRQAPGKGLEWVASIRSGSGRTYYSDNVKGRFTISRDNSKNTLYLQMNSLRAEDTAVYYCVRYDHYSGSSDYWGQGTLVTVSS VL: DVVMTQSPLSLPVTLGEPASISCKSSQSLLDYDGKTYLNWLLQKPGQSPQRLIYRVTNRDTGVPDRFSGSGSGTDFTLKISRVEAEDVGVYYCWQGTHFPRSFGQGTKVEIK (field: pKd) = 8.65

Would you kindly look at the next entry?
response.value for bapineuzumab Fab (Fab, V domains shown, also called hBP) VH: EVQLLESGGGLVQPGGSLRLSCAASGFTFSNYGMSWVRQAPGKGLEWVASIRSGGGRTYYSDNVKGRFTISRDNSKNTLYLQMNSLRAEDTAVYYCVRYDHYSGSSDYWGQGTLVTVSS VL: DVVMTQSPLSLPVTPGEPASISCKSSQSLLDSDGKTYLNWLLQKPGQSPQRLIYLVSKLDSGVPDRFSGSGSGTDFTLKISRVEAEDVGVYYCWQGTHFPRTFGQGTKVEIK (field: pKd) = 8.27
